The entries below come with measured growth AUC normalised to DMSO control values attached.
Tested on: P. vulgatus RND KO;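 further: active when median AUC fell below 0.1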
Assay: growth AUC normalised to DMSO control (median) (fraction of control); higher = less growth inhibition, active = hit call of the paper
Settings: 20 µM
Structures can show the parent of a compound that is named as a salt.
measured property: growth AUC normalised to DMSO control

>>> assay_result("C[C@@H]1C[C@H]2[C@@H]3C[C@H](F)C4=CC(=O)C=C[C@]4(C)[C@@]3(F)[C@@H](O)C[C@]2(C)[C@@]1(O)C(=O)COC(=O)C(C)(C)C [Flumethasone pivalate]")
0.995
>>> assay_result("C=C[C@H]1CN2CC[C@H]1C[C@@H]2[C@@H](O)c1ccnc2ccc(OC)cc12 [Quinidine hydrochloride monohydrate]")
0.998
>>> assay_result("Oc1c(Cl)cc(Cl)c2cccnc12")
0.32
>>> assay_result("CC[N+]1(CC)CCC(=C(c2ccccc2)c2ccccc2)C1C (stereo not drawn) [Prifinium Bromide]")
0.997
>>> assay_result("N#Cc1ccc(C(c2ccc(C#N)cc2)n2cncn2)cc1")
1.01
>>> assay_result("N=C(N)N/N=C/c1c(Cl)cccc1Cl [Guanabenz acetate]")
0.983
>>> assay_result("O=C(C1CCCCC1)N1CC(=O)N2CCc3ccccc3C2C1 (stereo not drawn)")
0.997
>>> assay_result("CC(C)N1CCN(c2ccc(OCC3COC(Cn4cncn4)(c4ccc(Cl)cc4Cl)O3)cc2)CC1 (stereo not drawn)")
1.06

###

Test system: P. vulgatus RND KO;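 further: active when median AUC fell below 0.1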
Experiment: growth AUC normalised to DMSO control (median) (fraction of control); higher = less growth inhibition, active = hit call of the paper
Conditions: 20 µM
Structures can show the parent of a compound that is named as a salt.
measured property: growth AUC normalised to DMSO control

>>> assay_result("N#Cc1ccc(Oc2ccc3c(c2)COB3O)cc1 [Crisaborole]")
1
>>> assay_result("O=C(O)c1cn(-c2ccc(F)cc2)c2cc(N3CCNCC3)c(F)cc2c1=O [Sarafloxacin]")
0.0128
>>> assay_result("C[C@]12CC[C@@H]3c4ccc(O)cc4CC[C@H]3[C@@H]1CCC2=O [Estrone]")
0.977
>>> assay_result("C=CCc1ccccc1OCC(O)CNC(C)C (stereo not drawn) [Alprenolol hydrochloride]")
1.07
>>> assay_result("NC(=O)OCC(COC(N)=O)c1ccccc1 [Felbamate]")
1
>>> assay_result("Cc1cc(NS(=O)(=O)c2ccc(N)cc2)nc(C)n1 [Sulfisomidine]")
1.03
>>> assay_result("N=C(N)NS(=O)(=O)c1ccc(N)cc1 [Sulfaguanidine]")
1.06
>>> assay_result("CN(C)CC/C=C1/c2ccccc2Sc2ccc(Cl)cc21 [Chlorprothixene hydrochloride]")
0.904
>>> assay_result("Brc1c(NC2=NCCN2)ccc2nccnc12 [Brimonidine L-tartrate]")
0.994
>>> assay_result("Oc1ccc(OCc2ccccc2)cc1 [Monobenzone]")
0.981
>>> assay_result("CCCCC[C@H](O)/C=C/[C@H]1[C@H](O)CC(=O)[C@@H]1CCCCCCC(=O)O [Alprostadil]")
0.994
>>> assay_result("CCN1CCN(C(=O)N[C@@H](C(=O)N[C@@H]2C(=O)N3[C@@H]2SC(C)(C)[C@@H]3C(=O)O)c2ccccc2)C(=O)C1=O [Piperacillin sodium salt]")
0.0135
>>> assay_result("C[C@H](CCC(=O)O)[C@H]1CC[C@H]2[C@@H]3[C@H](O)C[C@@H]4C[C@H](O)CC[C@]4(C)[C@H]3CC[C@]12C [Chenodiol]")
0.922
>>> assay_result("CCN1CC(CCN2CCOCC2)C(c2ccccc2)(c2ccccc2)C1=O (stereo not drawn) [Doxapram hydrochloride]")
1.05
>>> assay_result("C#CCN(C)Cc1ccccc1 [Pargyline hydrochloride]")
1.01
>>> assay_result("C[C@]12CCC(=O)C=C1CC[C@@H]1[C@@H]2C(=O)C[C@@]2(C)[C@H]1CC[C@]2(O)C(=O)CO [Cortisone]")
0.994
>>> assay_result("N=c1ccn2c(n1)O[C@H]1[C@H](O)[C@@H](CO)O[C@H]12 [Ancitabine hydrochloride]")
0.971
>>> assay_result("CC(=O)Nc1ccc(C(=O)O)cc1 [Acedoben]")
0.997

###

Tested on: P. vulgatus RND KO;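 further: active when median AUC fell below 0.1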
Test: growth AUC normalised to DMSO control (median) (fraction of control); higher = less growth inhibition, active = hit call of the paper
Details: 20 µM
measured property: growth AUC normalised to DMSO control

>>> assay_result("C[C@]12C=CC(=O)C=C1CC[C@@H]1[C@@H]2C(=O)C[C@@]2(C)[C@H]1CC[C@]2(O)C(=O)CO [Prednisone]")
1.02
>>> assay_result("CC(=O)OCC(=O)[C@@]1(O)[C@H](C)C[C@H]2[C@@H]3CCC4=CC(=O)C=C[C@]4(C)[C@@]3(F)[C@@H](O)C[C@@]21C [Dexamethasone acetate]")
0.993
>>> assay_result("O=C1NCN(c2ccccc2)C12CCN(CCCC(c1ccc(F)cc1)c1ccc(F)cc1)CC2 [Fluspirilene]")
1
>>> assay_result("CC(C(=O)O)c1ccc(CC2CCCC2=O)cc1 (configuration not stated) [Loxoprofen]")
1.01
>>> assay_result("CCOc1nc2cccc(C(=O)O)c2n1Cc1ccc(-c2ccccc2-c2nnn[nH]2)cc1 [Candesartan]")
1.01
>>> assay_result("CN[C@@H]1CCc2[nH]c3ccc(C(N)=O)cc3c2C1 [Frovatriptan succinate]")
1.02
>>> assay_result("CC1(C)O[C@@H]2C[C@H]3[C@@H]4CCC5=CC(=O)CC[C@]5(C)[C@@]4(F)[C@@H](O)C[C@]3(C)[C@]2(C(=O)CCl)O1 [Halcinonide]")
0.993

###

Test system: P. vulgatus RND KO;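 further: active when median AUC fell below 0.1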
Assay: growth AUC normalised to DMSO control (median) (fraction of control); higher = less growth inhibition, active = hit call of the paper;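 active = normalised median growth AUC below 0.1 of DMSO control; inactive = AUC 0.1 or higher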
Settings: 20 µM
Counter-ions that a name gives are not always drawn.
Outcomes: class 1 (active), class 0 (inactive)

>>> class("CO[C@@]1(NC(=O)Cc2cccs2)C(=O)N2C(C(=O)O)=C(COC(N)=O)CS[C@@H]21 [Cefoxitin sodium salt]")
"class 1"
>>> class("CN(C)CCc1c[nH]c2ccc(C[C@H]3COC(=O)N3)cc12 [Zolmitriptan]")
"class 0"
>>> class("CC(C)OC(=O)C(C(=O)OC(C)C)=C1SC=CS1 [Malotilate]")
"class 0"
>>> class("CO[C@@H]1[C@@H](O[C@@H]2O[C@H](C)[C@@H](O[C@H]3C[C@@](C)(O)[C@@H](O)[C@H](C)O3)[C@H](N(C)C)[C@H]2O)[C@@H](CC=O)C[C@@H](C)[C@@H](O[C@H]2CC[C@H](N(C)C)[C@@H](C)O2)/C=C/C=C/C[C@@H](C)OC(=O)C[C@H]1OC(C)=O [Acetyl spiramycin]")
"class 1"
>>> class("COc1cc(N)c(Cl)cc1C(=O)NC1CCN(CCCOc2ccc(F)cc2)CC1OC (stereo unspecified) [Cisapride]")
"class 0"
>>> class("CC(C)NCC(O)c1ccc(NS(C)(=O)=O)cc1 (stereo unspecified) [Sotalol hydrochloride]")
"class 0"
>>> class("O=S(=O)(O)CCS [Coenzyme M]")
"class 0"
>>> class("Cc1nc(=O)c2cc(CN(C)c3ccc(C(=O)N[C@@H](CCC(=O)O)C(=O)O)s3)ccc2[nH]1 [Raltitrexed]")
"class 0"
>>> class("N[C@@H](Cc1cc(I)c(Oc2cc(I)c(O)c(I)c2)c(I)c1)C(=O)O [(L) Thyroxine]")
"class 0"
>>> class("CCCCOc1ccc(OCCCN2CCOCC2)cc1 [Pramoxine hydrochloride]")
"class 0"
>>> class("CCN(CC)C(=O)N1CCN(C)CC1 [Diethylcarbamazine citrate]")
"class 0"
>>> class("CC(C)NC[C@H](O)COc1cccc2ccccc12 [(S)-(-)-Propranolol hydrochloride]")
"class 0"
>>> class("CC[C@H](C)C(=O)O[C@H]1C[C@H](O)C=C2C=C[C@H](C)[C@H](CC[C@@H](O)C[C@@H](O)CC(=O)O)[C@H]21 [Pravastatin]")
"class 0"
>>> class("C[N+](C)(C)CCCCCC[N+](C)(C)C [Hexamethonium dibromide dihydrate]")
"class 0"
>>> class("OCCN1C[C@H](O)[C@@H](O)[C@H](O)[C@H]1CO [Miglitol]")
"class 0"
>>> class("CCc1cc(Cl)c(OC)c(C(=O)NC[C@@H]2CCCN2CC)c1O [(S,-) Eticlopride hydrochloride]")
"class 0"

###

Tested on: P. vulgatus RND KO;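 further: active when median AUC fell below 0.1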
Assay: growth AUC normalised to DMSO control (median) (fraction of control); higher = less growth inhibition, active = hit call of the paper;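 active = normalised median growth AUC below 0.1 of DMSO control; inactive = AUC 0.1 or higher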
Details: 20 µM
Counter-ions that a name gives are not always drawn.
Outcome codes: 1.0 for active, 0.0 for inactive

>>> class("Cc1nc2ccccn2c(=O)c1CCN1CCC(C(=O)c2ccc(F)cc2)CC1")
0.0
>>> class("CC[C@H]1OC(=O)[C@H](C)[C@@H](O[C@H]2C[C@@](C)(OC)[C@@H](O)[C@H](C)O2)[C@H](C)[C@@H](O[C@@H]2O[C@H](C)C[C@H](N(C)C)[C@H]2O)[C@](C)(O)C[C@@H](C)C(=O)[C@H](C)[C@@H](O)[C@]1(C)O")
1.0
>>> class("CC1=C(/C=C/C(C)=C/C=C/C(C)=C/C(=O)O)C(C)(C)CCC1")
0.0
>>> class("CCCCC(O)c1ccccc1 (configuration not stated)")
0.0
>>> class("CC(=O)NS(=O)(=O)c1ccc(N)cc1 [Sulfacetamide sodic hydrate]")
0.0
>>> class("COc1c(O[C@@H]2O[C@H](CO)[C@@H](O)[C@H](O)[C@H]2O)cc2c(c1OC)-c1ccc(SC)c(=O)cc1[C@@H](NC(C)=O)CC2 [Thiocolchicoside]")
0.0
>>> class("c1ccc2c(CC3=NCCN3)cccc2c1 [Naphazoline hydrochloride]")
0.0
